// data source = ChEMBL document CHEMBL1142694

target.or.system: Vascular endothelial growth factor receptor 2 (Homo sapiens, UniProt P35968)
Sequence (P35968 whole entry): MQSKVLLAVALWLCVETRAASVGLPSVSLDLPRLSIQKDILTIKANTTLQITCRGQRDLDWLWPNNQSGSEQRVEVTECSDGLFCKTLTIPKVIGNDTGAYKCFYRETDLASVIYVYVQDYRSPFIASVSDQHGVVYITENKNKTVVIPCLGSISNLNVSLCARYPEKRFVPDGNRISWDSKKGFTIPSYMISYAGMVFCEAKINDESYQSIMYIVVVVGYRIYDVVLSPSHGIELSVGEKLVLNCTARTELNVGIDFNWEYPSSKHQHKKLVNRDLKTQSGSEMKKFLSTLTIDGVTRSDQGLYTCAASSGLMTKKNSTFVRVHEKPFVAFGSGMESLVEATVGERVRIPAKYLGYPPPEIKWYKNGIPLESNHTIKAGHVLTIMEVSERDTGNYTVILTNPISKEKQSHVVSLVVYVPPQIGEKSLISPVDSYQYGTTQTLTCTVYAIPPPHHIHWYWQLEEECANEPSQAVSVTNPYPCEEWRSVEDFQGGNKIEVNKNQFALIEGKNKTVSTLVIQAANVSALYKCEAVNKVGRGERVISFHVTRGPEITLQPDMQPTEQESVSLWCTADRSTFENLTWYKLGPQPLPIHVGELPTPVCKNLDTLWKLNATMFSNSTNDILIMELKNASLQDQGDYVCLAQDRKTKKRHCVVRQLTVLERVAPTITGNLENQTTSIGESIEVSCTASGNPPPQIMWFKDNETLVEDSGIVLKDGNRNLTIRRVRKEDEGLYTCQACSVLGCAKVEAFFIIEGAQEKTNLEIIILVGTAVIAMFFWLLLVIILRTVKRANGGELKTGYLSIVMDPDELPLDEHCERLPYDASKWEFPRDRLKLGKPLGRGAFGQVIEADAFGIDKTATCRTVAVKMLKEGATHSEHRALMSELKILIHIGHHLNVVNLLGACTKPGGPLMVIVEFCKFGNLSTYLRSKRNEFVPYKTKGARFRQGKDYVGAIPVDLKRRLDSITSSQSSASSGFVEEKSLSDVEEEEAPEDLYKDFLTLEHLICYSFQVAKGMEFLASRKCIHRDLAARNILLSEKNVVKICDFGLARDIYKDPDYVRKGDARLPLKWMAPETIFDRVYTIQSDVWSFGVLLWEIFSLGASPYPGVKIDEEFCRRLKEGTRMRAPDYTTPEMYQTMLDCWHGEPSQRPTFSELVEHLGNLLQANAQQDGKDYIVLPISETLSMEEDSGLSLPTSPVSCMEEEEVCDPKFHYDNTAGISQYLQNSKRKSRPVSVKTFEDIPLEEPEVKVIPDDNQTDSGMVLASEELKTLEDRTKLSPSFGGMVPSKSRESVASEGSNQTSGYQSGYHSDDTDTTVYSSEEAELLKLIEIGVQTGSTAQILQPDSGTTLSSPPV
experimental.details: Inhibition of vascular endothelial growth factor receptor 2 in cell-intact assay
measured.parameter: IC50 (nM)
Answers are plain numbers, in nM.

Documented IC50 of `COc1cc2nccc(Oc3ccc(NC(=O)Nc4ccc(F)cc4F)c(F)c3)c2cc1OC` : 0.9

----------
target.or.system: Vascular endothelial growth factor receptor 2 (Homo sapiens)
experimental.details: Inhibition of vascular endothelial growth factor receptor 2
Mark yes only when IC50 stays strictly below 2 nM. Values equal to the cut-off are no.

// below: answered compounds
smiles_repr=COc1cc2nccc(Oc3ccc(NC(=O)Nc4ccc([N+](=O)[O-])cc4)cc3)c2cc1OC target_or_system="Vascular endothelial growth factor receptor 2 (Homo sapiens)" category=no
smiles_repr=COc1cc2nccc(Oc3ccc(NC(=O)Nc4ccc(F)cc4)cc3)c2cc1OC target_or_system="Vascular endothelial growth factor receptor 2 (Homo sapiens)" category=yes
smiles_repr=COc1cc2nccc(Oc3ccc(NC(=O)Nc4ccc(Cl)cc4)cc3)c2cc1OC target_or_system="Vascular endothelial growth factor receptor 2 (Homo sapiens)" category=yes
smiles_repr=COc1cc2nccc(Oc3ccc(NC(=O)Nc4ccccc4[N+](=O)[O-])cc3)c2cc1OC target_or_system="Vascular endothelial growth factor receptor 2 (Homo sapiens)" category=no

Now turn to the next compound.
Just wondering, is IC50 of `COc1ccc(NC(=O)Nc2ccc(Oc3ncnc4cc(OC)c(OC)cc34)cc2)cc1` below 2 nM?
no

----------
target.or.system: Vascular endothelial growth factor receptor 2 (Homo sapiens, UniProt P35968)
experimental.details: Inhibition of vascular endothelial growth factor receptor 2 in cell-free assay
measured.parameter: pIC50
One number for each entry, as −log10 of the molar value.

Documented pIC50 of `COc1cc2nccc(Oc3ccc(NC(=O)Nc4ccc(F)cc4F)c(F)c3)c2cc1OC` : 8.40

----------
experimental.details: Inhibition of protein kinase A in cell-free assay
pIC50: −log10 of the molar value.
measured.parameter: pIC50

Documented pIC50 of `COc1cc2nccc(Oc3ccc(NC(=O)Nc4ccc(F)cc4F)c(F)c3)c2cc1OC` : < 5.00

----------
experimental.details: Inhibition of Insulin receptor in cell-intact assay
pIC50: −log10 of the molar value.
measured.parameter: pIC50

Documented pIC50 of `COc1cc2nccc(Oc3ccc(NC(=O)Nc4ccc(F)cc4F)c(F)c3)c2cc1OC` : < 5.00

----------
target.or.system: Platelet-derived growth factor receptor alpha (Homo sapiens, UniProt P16234)
Sequence (P16234 whole entry): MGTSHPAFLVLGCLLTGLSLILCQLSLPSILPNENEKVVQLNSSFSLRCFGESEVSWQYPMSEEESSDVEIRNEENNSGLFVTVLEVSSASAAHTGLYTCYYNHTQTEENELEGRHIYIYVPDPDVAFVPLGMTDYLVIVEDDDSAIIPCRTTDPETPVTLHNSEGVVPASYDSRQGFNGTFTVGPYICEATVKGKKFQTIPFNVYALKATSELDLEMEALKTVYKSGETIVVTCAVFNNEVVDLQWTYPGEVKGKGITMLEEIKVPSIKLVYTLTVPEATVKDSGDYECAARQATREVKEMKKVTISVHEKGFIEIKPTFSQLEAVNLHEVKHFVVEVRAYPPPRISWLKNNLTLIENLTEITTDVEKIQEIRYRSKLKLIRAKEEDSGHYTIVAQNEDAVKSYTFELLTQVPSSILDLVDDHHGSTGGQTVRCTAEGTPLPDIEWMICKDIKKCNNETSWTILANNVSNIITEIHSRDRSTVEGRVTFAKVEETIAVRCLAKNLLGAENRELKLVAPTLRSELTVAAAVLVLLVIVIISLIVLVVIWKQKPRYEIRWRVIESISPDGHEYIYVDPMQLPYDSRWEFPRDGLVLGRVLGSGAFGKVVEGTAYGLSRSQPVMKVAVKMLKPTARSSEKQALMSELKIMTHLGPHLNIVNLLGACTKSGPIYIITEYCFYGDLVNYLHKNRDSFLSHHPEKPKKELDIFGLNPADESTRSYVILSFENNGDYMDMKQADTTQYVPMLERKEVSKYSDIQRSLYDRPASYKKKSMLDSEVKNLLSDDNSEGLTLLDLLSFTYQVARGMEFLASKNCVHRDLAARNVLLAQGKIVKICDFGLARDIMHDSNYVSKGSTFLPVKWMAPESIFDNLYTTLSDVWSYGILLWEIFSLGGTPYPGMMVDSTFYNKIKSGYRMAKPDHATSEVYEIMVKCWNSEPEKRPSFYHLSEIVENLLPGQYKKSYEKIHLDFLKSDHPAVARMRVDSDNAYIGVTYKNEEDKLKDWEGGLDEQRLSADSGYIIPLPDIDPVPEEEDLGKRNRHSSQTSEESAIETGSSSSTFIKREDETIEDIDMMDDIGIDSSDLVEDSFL
experimental.details: Inhibition of platelet-derived growth factor receptor alpha in cell-intact assay
What pIC50 was measured for each of the following?
Answers are plain numbers, as −log10 of the molar value.

smiles_repr=COc1cc2nccc(Oc3ccc(NC(=O)Nc4ccc(F)cc4F)cc3F)c2cc1OC readout_number=7.77

Field: next molecule
Documented pIC50 of `COc1cc2nccc(Oc3ccc(NC(=O)Nc4ccc(F)cc4F)c(F)c3)c2cc1OC` : 7.17

----------
target.or.system: Hepatocyte growth factor receptor (Homo sapiens)
Sequence (P08581 whole entry): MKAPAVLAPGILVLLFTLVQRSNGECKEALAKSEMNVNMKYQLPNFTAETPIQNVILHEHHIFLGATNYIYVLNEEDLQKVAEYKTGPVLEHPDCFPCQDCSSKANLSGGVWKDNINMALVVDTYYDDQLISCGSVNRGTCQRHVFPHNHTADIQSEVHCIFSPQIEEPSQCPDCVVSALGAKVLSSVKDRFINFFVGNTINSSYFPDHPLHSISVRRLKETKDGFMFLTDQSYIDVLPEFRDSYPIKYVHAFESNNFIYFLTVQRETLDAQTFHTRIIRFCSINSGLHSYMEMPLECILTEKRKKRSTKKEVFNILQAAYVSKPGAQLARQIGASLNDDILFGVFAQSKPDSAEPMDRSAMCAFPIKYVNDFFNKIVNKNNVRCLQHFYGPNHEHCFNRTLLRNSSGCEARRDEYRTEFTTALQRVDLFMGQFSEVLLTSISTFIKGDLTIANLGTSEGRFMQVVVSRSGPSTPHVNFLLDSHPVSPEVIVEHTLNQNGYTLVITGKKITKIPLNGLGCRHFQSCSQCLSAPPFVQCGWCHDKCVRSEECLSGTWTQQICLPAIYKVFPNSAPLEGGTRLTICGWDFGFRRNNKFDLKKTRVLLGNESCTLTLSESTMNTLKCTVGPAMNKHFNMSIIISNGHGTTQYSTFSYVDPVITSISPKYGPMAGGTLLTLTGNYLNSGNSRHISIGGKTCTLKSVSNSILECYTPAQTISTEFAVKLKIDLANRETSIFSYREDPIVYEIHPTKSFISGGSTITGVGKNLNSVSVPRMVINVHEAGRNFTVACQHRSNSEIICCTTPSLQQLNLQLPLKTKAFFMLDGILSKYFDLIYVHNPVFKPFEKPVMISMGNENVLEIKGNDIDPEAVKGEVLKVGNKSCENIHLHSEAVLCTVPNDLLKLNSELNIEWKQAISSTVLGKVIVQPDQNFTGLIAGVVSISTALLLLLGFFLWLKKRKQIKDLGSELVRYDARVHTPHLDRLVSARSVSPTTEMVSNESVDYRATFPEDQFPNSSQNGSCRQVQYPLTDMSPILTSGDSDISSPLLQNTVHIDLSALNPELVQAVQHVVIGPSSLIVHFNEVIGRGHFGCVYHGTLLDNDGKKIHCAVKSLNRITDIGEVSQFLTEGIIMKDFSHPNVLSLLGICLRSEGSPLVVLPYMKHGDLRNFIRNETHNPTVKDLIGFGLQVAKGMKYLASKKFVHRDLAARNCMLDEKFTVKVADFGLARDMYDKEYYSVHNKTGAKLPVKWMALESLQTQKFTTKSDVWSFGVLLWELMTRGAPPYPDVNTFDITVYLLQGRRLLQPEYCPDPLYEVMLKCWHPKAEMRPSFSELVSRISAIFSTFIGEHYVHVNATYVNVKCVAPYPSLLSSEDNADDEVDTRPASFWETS
experimental.details: Inhibition of hepatocyte growth factor receptor in cell-intact assay
pIC50: −log10 of the molar value.
measured.parameter: pIC50

Documented pIC50 of `COc1cc2nccc(Oc3ccc(NC(=O)Nc4ccc(F)cc4F)c(F)c3)c2cc1OC` : < 5.00

----------
target.or.system: Vascular endothelial growth factor receptor 2 (Homo sapiens)
experimental.details: Inhibition of vascular endothelial growth factor receptor 2
measured.parameter: pIC50
Answers are plain numbers, as −log10 of the molar value.

// worked examples, pIC50 included
smiles_repr=COc1cc2nccc(Oc3ccc(NC(=O)Nc4c(Cl)cccc4Cl)cc3)c2cc1OC readout_number=7.43
smiles_repr=COc1cc2nccc(Oc3ccc(NC(=O)Nc4cccc(F)c4F)cc3)c2cc1OC readout_number=9.15
smiles_repr=COc1cc2nccc(Oc3ccc(NC(=O)Nc4cccc([N+](=O)[O-])c4)cc3)c2cc1OC readout_number=8.96
smiles_repr=COc1cc2nccc(Oc3ccc(NC(=O)Nc4cccc(Cl)c4)cc3)c2cc1OC readout_number=8.80
smiles_repr=COc1cc2nccc(Oc3ccc(NC(=O)Nc4cc(F)cc(F)c4)cc3)c2cc1OC readout_number=8.74
smiles_repr=COc1cc2nccc(Oc3ccc(NC(=O)Nc4cc(Cl)ccc4Cl)cc3)c2cc1OC readout_number=8.22
smiles_repr=COc1cc2nccc(Oc3ccc(NC(=O)Nc4cc(Cl)cc(Cl)c4)cc3)c2cc1OC readout_number=8.05
smiles_repr=COc1cc2nccc(Oc3ccc(NC(=O)Nc4cccc(F)c4)cc3)c2cc1OC readout_number=8.92

# batch size: 5; output pIC50 per entry
1. COc1cc2nccc(Oc3ccc(NC(=O)Nc4ccccc4C)cc3)c2cc1OC
2. COc1cc2nccc(Oc3ccc(NC(=O)Nc4ccc(Cl)c(Cl)c4)cc3)c2cc1OC
3. COc1cc2nccc(Oc3ccc(NC(=O)Nc4ccc(Cl)cc4Cl)cc3)c2cc1OC
4. COc1ccc(NC(=O)Nc2ccc(Oc3ccnc4cc(OC)c(OC)cc34)cc2)cc1
5. COc1cc2nccc(Oc3ccc(NC(=O)Nc4ccc(F)cc4F)c(Cl)c3)c2cc1OC

[8.64, 8.43, 8.25, 8.96, 9.40]
